Value source: patent US12459938B2

A collection of compounds and their measured activity at 10 µM
System: Rat mast cells (RBL-2H3 cells)
Assay Comment: Calcium influx assay (Fluo-4NW, thapsigargin store depletion, Ca2+ re-addition)
Assay type: cell-based
Measurement Setup: 10 μM compound, control = DMSO, read-out: Fluo-4NW fluorescence (Ca2+ influx), % of control

# Substance Smiles, activity at 10 µM, %
rows = [
    ("O=C(Nc1ccncc1F)c1cn(CC2CC2)c2ccccc12", 31),
    ("O=C(Nc1c(F)cncc1F)c1cn(CC2CC2)c2ccccc12", 37),
    ("O=C(Nc1c(F)cccc1Cl)c1cn(CC2CC2)c2ccccc12", 14),
]
